Target sequence: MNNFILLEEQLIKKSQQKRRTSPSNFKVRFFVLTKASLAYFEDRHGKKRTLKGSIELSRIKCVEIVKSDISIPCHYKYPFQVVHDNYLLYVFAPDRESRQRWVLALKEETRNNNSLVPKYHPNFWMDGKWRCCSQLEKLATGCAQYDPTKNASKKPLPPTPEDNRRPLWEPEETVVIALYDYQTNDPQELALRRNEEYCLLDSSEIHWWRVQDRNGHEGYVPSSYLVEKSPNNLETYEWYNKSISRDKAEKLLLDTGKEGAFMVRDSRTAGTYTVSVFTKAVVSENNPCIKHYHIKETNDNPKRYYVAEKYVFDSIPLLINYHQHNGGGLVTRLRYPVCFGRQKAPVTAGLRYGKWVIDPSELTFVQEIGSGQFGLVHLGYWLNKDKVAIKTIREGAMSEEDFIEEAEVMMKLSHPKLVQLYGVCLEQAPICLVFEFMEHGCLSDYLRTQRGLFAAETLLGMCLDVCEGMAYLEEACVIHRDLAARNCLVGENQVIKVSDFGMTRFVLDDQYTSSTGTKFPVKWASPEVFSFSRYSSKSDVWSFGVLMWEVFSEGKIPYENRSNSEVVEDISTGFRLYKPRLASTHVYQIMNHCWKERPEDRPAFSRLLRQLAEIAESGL
pIC50: −log10 of the molar value.
REPORTED ENDPOINT: pIC50

Worked cases, answers included:
* COc1ccccc1-c1cc2c(s1)CCc1cnc(Nc3cccc(S(N)(=O)=O)c3)nc1-2 | > 6.00
* COc1cccc(-c2cc3c(s2)CCc2cnc(Nc4cccc(S(N)(=O)=O)c4)nc2-3)c1OC | > 6.00

Record pIC50 for all entries; do not skip any.
1. NS(=O)(=O)c1cccc(Nc2ncc3c(n2)-c2cc(-c4ccccc4OC(F)(F)F)sc2CC3)c1
2. NS(=O)(=O)c1cccc(Nc2ncc3c(n2)-c2cc(-c4cccc([N+](=O)[O-])c4)sc2CC3)c1
3. NS(=O)(=O)c1cccc(Nc2ncc3c(n2)-c2ccsc2CC3)c1
4. COc1cccc(-c2cc3c(s2)CCc2cnc(Nc4cccc(O)c4)nc2-3)c1
5. NS(=O)(=O)c1cccc(Nc2ncc3c(n2)-c2cc(-c4cccnc4)sc2CC3)c1
6. NS(=O)(=O)c1cccc(Nc2ncc3c(n2)-c2cc(-c4cccc(Cl)c4)sc2CC3)c1
7. NS(=O)(=O)c1cccc(Nc2ncc3c(n2)-c2cc(-c4ccccc4Cl)sc2CC3)c1

## Output
1. > 6.00
2. > 6.00
3. > 6.00
4. > 6.00
5. > 6.00
6. > 6.00
7. > 6.00

###

Task for the reader: assign each of the following compounds its reported pKi.
Biological target: Itk (Homo sapiens, UniProt Q08881)
Experiment: Itk inhibition assay: spectrophotometric coupled enzyme (Method C)
Assay type: biochemical
Conditions: 100 μM ATP, read-out: Ki in the standard coupled enzyme assay (Method C)
pKi: −log10 of the molar value.

• CS(=O)(=O)c1cccc(Nc2ncc3ccc4sc(C(=O)NCCN5CCNC5=O)cc4c3n2)c1 = > 6.00
• CC(=O)NC1CCN(C(=O)c2cc3c(ccc4cnc(Nc5cccc(S(C)(=O)=O)c5)nc43)s2)C1 (stereo not shown) = > 6.00
• CC(C)(C)c1cccc(Nc2ncc3ccc4sc(C(=O)N5CCC(N)C5)cc4c3n2)c1 (stereo not shown) = > 6.00

Attention now turns to another entry.
Consider CC(=O)N1CCCN(C(=O)c2cc3c(ccc4cnc(Nc5cccc(C(C)(C)C)c5)nc43)s2)CC1 . Its measured pKi is > 6.00
